The values you see were collected from paper PMC10801496.

Quick reference for pKd among some binders
- Test system: T1, human CD47 with His tag (Homo sapiens, UniProt Q08722)
- T1 construct: CD47, human; The alpaca was immunised with an extracellular fragment of CD47; also called recombinant CD47; source: gift from P.M. Chumakov
- T1 sequence (Q08722 19-323): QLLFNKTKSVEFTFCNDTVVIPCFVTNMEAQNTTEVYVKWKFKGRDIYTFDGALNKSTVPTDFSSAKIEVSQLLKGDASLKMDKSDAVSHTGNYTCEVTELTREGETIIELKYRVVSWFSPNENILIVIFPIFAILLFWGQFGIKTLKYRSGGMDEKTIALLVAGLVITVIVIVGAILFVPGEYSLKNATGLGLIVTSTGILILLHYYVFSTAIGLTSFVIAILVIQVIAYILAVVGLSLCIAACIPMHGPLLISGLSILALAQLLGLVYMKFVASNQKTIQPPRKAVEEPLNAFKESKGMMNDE
- Measurement description: SPR; recombinant CD47 anchored to a CM5 chip, nanobodies as analyte, Biacore T200
- Test conditions: both partners purified
Just so you know, pKd here is -log10 of the concentration in molar units; reply with that number alone.

# example entries with known answers
Binder | Quantitative result
47VHH1H4 (VHH, alpaca VHH; Cloned into pET32b+; about 17 kDa on SDS-PAGE; also called native 47VHH1H4; source: E. coli BL21DE3, purified (Ni-NTA, gel-filtration)) VHH: QVQLVESGGGLVQAGGSLRLSCKVSGNNFRRVNMGWYRQAPGKQRDLVAWISNDGGTYYDRSLKGRFTISRDNTKNTMFLQMDSLKPEDTAVYYCNSRPSSIFGSWGQGTQVTVSS | 7.52
47VHH1C17 (VHH, alpaca VHH; Cloned into pET32b+; about 17 kDa on SDS-PAGE; source: E. coli BL21DE3, purified (Ni-NTA, gel-filtration)) VHH: QVQLVESGGGLVQAGGSLRLSCAASGHTFSSYDMGWFRQAPGKEREFVAHINWSGSTYYADSVKGRFTISGGNAKNAVYLQMNSLKPEDTAVYYCGAKYAISRTWDYWGQGTQVTVSS | 5.70
47VHH1D9 (VHH, alpaca VHH; Cloned into pET32b+; about 17 kDa on SDS-PAGE; source: E. coli BL21DE3, purified (Ni-NTA, gel-filtration)) VHH: RVQAGGSLRLSCKVSGNNFRRVNMGWYRQAPGKQRDLVAWISNDGGTYYDRSLKGRFTISRDNTKNTMFLQMDSLKPEDTAVYYCNSRPSSIFGSWGQGTQVTVSS | 6.40

Let's switch to this binder now.
Problem: Which value of pKd has been reported for 47VHH1H4B (VHH, as the VHH of m3 (47VHH1H4); IgA hinge linker; biotin acceptor domain BAD; About 25 kDa on SDS-PAGE; also called biotinylated 47VHH1H4; biotinylated 47VHH1H4 fragment; source: E. coli BL21DE3 carrying BirA, 0.3 mM biotin, purified (Ni-NTA, UNO S1 cation exchange)) VHH: QVQLVESGGGLVQAGGSLRLSCKVSGNNFRRVNMGWYRQAPGKQRDLVAWISNDGGTYYDRSLKGRFTISRDNTKNTMFLQMDSLKPEDTAVYYCNSRPSSIFGSWGQGTQVTVSS in the records?
Solution: 8.52
